Test: cells
Conditions: Homo sapiens, HEK-293T, 14 h
Description: Inhibition of TNFalpha-induced NFkappaB activation in HEK293T cells after 14 hrs by luciferase reporter gene assay
Item-by-item account of IC50

Previously resolved entries follow.
compound | IC50
CC(=O)c1ccc(N2CCN(S(=O)(=O)c3ccc4c(c3)CCN4C(C)=O)CC2)cc1 | > 20 µM
CC(=O)c1ccc(N2CCN(S(=O)(=O)c3ccc4c(c3)CC(C)N4C(=O)C3CC3)CC2)cc1 (racemic) | > 20 µM
CCC(=O)N1CCc2cc(S(=O)(=O)N3CCN(c4ccc(C(C)=O)cc4)CC3)ccc21 | > 20 µM
O=C(Nc1ccc(CN2CCc3ccccc3C2)cc1)c1ccc(Cl)cc1 | > 20 µM
CC(=O)N1CCc2cc(S(=O)(=O)N3CCN(c4ccc(C#N)cc4)CC3)ccc21 | 8.79 µM

Just so you know, measured IC50 for Cc1ccc(S(=O)(=O)n2cnc3ccccc32)cc1 came out at > 20 µM

Just so you know, measured IC50 for O=C(Nc1ccc(F)cc1)c1ccc(CN2CCc3ccccc32)cc1 came out at > 20 µM

Just so you know, measured IC50 for O=C(Nc1ccc(F)cc1)c1ccc(CN2CCc3ccccc3C2)cc1 came out at 2.88 µM

* * *

Item-by-item account of pIC50
Assay: cells
Details: Homo sapiens, HEK-293T, 14 h
pIC50: −log10 of the molar value.

moleculeSmiles | result
CSc1ccc(NC(=O)c2ccc(CN3CCc4ccccc43)cc2)cc1 | < 4.70
CCOc1ccc(NC(=O)c2ccc(CN3CCc4ccccc43)cc2)cc1 | < 4.70

Just so you know, measured pIC50 for CCC(=O)N1CCc2cc(S(=O)(=O)N3CCN(c4ccc(C#N)cc4)CC3)ccc21 came out at < 4.70

* * *

Item-by-item account of pIC50
Molecular target: Nucleotide-binding oligomerization domain-containing protein 2 (Homo sapiens, UniProt Q9HC29)
Sequence (Q9HC29 whole entry, the tested form may be a part): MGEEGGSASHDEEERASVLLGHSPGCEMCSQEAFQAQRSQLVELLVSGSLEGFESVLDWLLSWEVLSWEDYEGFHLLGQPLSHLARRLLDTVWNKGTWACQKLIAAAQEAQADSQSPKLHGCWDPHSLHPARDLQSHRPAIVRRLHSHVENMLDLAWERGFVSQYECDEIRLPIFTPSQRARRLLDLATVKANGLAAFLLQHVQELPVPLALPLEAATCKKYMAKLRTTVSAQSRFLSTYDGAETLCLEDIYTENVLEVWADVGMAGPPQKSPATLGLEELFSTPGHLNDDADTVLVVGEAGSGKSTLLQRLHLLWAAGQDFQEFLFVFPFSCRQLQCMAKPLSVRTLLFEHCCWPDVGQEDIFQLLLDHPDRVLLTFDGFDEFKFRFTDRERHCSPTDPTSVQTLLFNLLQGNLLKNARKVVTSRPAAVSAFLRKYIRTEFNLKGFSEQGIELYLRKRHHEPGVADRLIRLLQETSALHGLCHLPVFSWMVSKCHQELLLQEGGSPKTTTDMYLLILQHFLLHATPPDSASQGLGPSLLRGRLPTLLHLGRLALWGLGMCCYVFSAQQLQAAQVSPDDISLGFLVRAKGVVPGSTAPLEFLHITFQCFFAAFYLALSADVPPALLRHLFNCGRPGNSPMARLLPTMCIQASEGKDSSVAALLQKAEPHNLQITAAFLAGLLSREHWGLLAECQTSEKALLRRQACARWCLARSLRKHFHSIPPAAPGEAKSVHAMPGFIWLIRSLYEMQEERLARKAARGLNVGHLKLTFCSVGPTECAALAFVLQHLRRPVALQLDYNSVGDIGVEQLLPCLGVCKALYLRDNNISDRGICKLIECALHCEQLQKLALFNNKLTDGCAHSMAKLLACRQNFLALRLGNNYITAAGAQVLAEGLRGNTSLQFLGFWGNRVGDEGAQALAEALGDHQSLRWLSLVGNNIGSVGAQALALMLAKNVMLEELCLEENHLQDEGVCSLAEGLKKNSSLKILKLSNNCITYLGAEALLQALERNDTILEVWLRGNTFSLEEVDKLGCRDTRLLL
pIC50: −log10 of the molar value.

Previously resolved entries follow.
compound | pIC50
CCOC(=O)c1ccc(NC(=O)c2ccc(CCN3CCc4ccccc4C3)cc2)cc1 | < 4.70
Cc1ccc(N2CCN(S(=O)(=O)c3ccc4c(c3)CC(C)N4C(=O)C3CC3)CC2)cc1 (racemic) | < 4.70
O=C(C1CC1)N1CCc2cc(S(=O)(=O)N3CCN(c4ccc(Cl)cc4)CC3)ccc21 | < 4.70
Nc1nc2ccccc2n1C(=O)Cc1ccccc1 | < 4.70
O=C(Nc1ccc(S(=O)(=O)O)cc1)c1ccc(CN2CCc3ccccc3C2)cc1 | < 4.70

Just so you know, measured pIC50 for COc1ccc(C(=O)Cn2c(N)nc3ccccc32)cc1 came out at < 4.70

Just so you know, measured pIC50 for Cc1ccc(S(=O)(=O)n2cnc3ccccc32)cc1 came out at < 4.70

Just so you know, measured pIC50 for CCOc1ccc(NC(=O)c2ccc(CN3CCc4ccccc43)cc2)cc1 came out at < 4.70

Just so you know, measured pIC50 for O=C(Nc1ccc(Cl)cc1)c1ccc(CCN2CCc3ccccc3C2)cc1 came out at < 4.70

Just so you know, measured pIC50 for CCC(=O)N1CCc2cc(S(=O)(=O)N3CCN(c4ccc(Cl)cc4)CC3)ccc21 came out at < 4.70

Just so you know, measured pIC50 for CC(=O)N1c2ccc(S(=O)(=O)N3CCN(c4ccc(Cl)cc4)CC3)cc2CC1C (racemic) came out at 5.76

Just so you know, measured pIC50 for CSc1ccc(NC(=O)c2ccc(CN3CCc4ccccc4C3)cc2)cc1 came out at 6.59

Just so you know, measured pIC50 for CC1Cc2cc(S(=O)(=O)N3CCN(c4ccc([N+](=O)[O-])cc4)CC3)ccc2N1C(=O)C1CC1 (racemic) came out at 6.70

Just so you know, measured pIC50 for COc1ccc(N2CCN(S(=O)(=O)c3ccc4c(c3)CC(C)N4C(=O)C3CC3)CC2)cc1 (racemic) came out at 6.41
